Data origin, for the record: PubChem BioAssay AID1845205

System: MPNST multicellular tumor spheroids, viability % test/control
PROCEDURE DETAILS: Anticancer human tumor MPNST cell line growth inhibition;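 also: luminescence signal used as surrogate for viable cell amount; spheroids exposed to agents for seven days after three days of growth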
ASSAY CONDITIONS: second compound 31.6 µM; first compound 1 µM; hits give low values
Experimental: Multicellular complex tumor spheroid response to DNA repair inhibitors in combination with DNA-damaging drugs This study explores the anticancer activities of DNA-damaging drugs and inhibitors of DNA damage repair, both as single agents and in combinations. […] Twenty-six patient-derived or established malignant cell lines were evaluated representing sarcoma, melanoma, small cell lung cancer (SCLC), non-small cell lung cancer (NSCLC), as well as bladder, ovarian and pancreatic cancers. […]
So I've got a bunch of compounds here, and I need their viability, T/C values.
Numbers only, in %.

Go through the items and report each one's viability, T/C.
1. Cc1cc(C)c(CNC(=O)c2cc(-c3ccc(CN4CCOCC4)cc3)cc3c2cnn3C2CCCC2)c(=O)[nH]1 + Cn1nnc2c(C(N)=O)ncn2c1=O
2. COc1ccc([C@@H](O)c2cc(-c3ncnc4cc(N5CCOCC5)ccc34)c(F)cc2Cl)nn1 + Cn1nnc2c(C(N)=O)ncn2c1=O
3. COc1cc(C)[nH]c(=O)c1CN1CCc2c(Cl)cc(C(OC)C3COC3)c(Cl)c2C1=O (stereo unspecified) + Cn1nnc2c(C(N)=O)ncn2c1=O
4. CC1COCCN1c1cc(-c2ccnn2C)c2ccnc(-c3ccn[nH]3)c2n1 (stereo unspecified) + Cn1nnc2c(C(N)=O)ncn2c1=O

Ans:
1. 107
2. 66.5
3. 81.7
4. 41.2

Go through the items and report each one's viability, T/C.
1. CC(C)n1c(=O)n(C)c2cnc3cc(F)c(-c4ccc(OCCCN5CCCCC5)nc4)cc3c21 + Cn1nnc2c(C(N)=O)ncn2c1=O
2. [2H]c1nc(C)nc([2H])c1-c1cc(NC[C@@H](C)c2cccc3c(C(=O)NC)ccnc23)ncn1 + Cn1nnc2c(C(N)=O)ncn2c1=O

Ans:
1: 81.8; 2: 96.8

---

Test system: MPNST multicellular tumor spheroids, viability % test/control
PROCEDURE DETAILS: Anticancer human tumor MPNST cell line growth inhibition;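 also: luminescence signal used as surrogate for viable cell amount; spheroids exposed to agents for seven days after three days of growth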
ASSAY CONDITIONS: second compound 0.003 µM; first compound 3.16 µM; hits give low values
So I've got a bunch of compounds here, and I need their viability, T/C values.
One number for each entry, in %.

Worked cases, viability, T/C given:
COc1cc(C)[nH]c(=O)c1CN1CCc2c(Cl)cc(C(OC)C3COC3)c(Cl)c2C1=O (stereo not given) + COc1cc2c(cc1O)CCNC21CSC2c3c(OC(C)=O)c(C)c4c(c3C(COC1=O)N1C(O)C3Cc5cc(C)c(OC)c(O)c5C(C21)N3C)OCO4 ... 7.75
Cc1cc(C)c(CNC(=O)c2cc(-c3ccc(CN4CCOCC4)cc3)cc3c2cnn3C2CCCC2)c(=O)[nH]1 + CC[C@@]1(O)C(=O)OCc2c1cc1n(c2=O)Cc2cc3c(CN(C)C)c(O)ccc3nc2-1 ... 93.3
CC1COCCN1c1cc(-c2ccnn2C)c2ccnc(-c3ccn[nH]3)c2n1 (stereo not given) + CC[C@@]1(O)C(=O)OCc2c1cc1n(c2=O)Cc2cc3c(CN(C)C)c(O)ccc3nc2-1 ... 25.9
COc1ccc([C@@H](O)c2cc(-c3ncnc4cc(N5CCOCC5)ccc34)c(F)cc2Cl)nn1 + COc1cc2c(cc1O)CCNC21CSC2c3c(OC(C)=O)c(C)c4c(c3C(COC1=O)N1C(O)C3Cc5cc(C)c(OC)c(O)c5C(C21)N3C)OCO4 ... 2.63

Q: Query: viability, T/C; subject: COc1ccc([C@@H](O)c2cc(-c3ncnc4cc(N5CCOCC5)ccc34)c(F)cc2Cl)nn1 + CC[C@@]1(O)C(=O)OCc2c1cc1n(c2=O)Cc2cc3c(CN(C)C)c(O)ccc3nc2-1
Ans: 33.5
